# methodSummary: small-molecule binders of probe aInhba, primary screen, biochemical, small-molecule microarray, 635/667 nm fluorescence (AID 1148);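 further: score merges 667nm spot fluorescence with signal-to-noise for antibody binding to printed compounds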
# testParameters: higher = more signal
Classification field: 1.0 = composite z-score at or over -0.07; 0.0 = composite z-score under -0.07.

- COc1ccc([Si](C)(C)[C@@H]2[C@@H](CCn3cc([C@H](O)c4ccccc4)nn3)O[C@]3(C(=O)N(Cc4cccc(N5C(=O)c6cccc7cccc5c67)c4)c4ccccc43)[C@H]2C)cc1: 0.0
- C=C(C)[C@@H]1CC=C(C(O)C2C=CC3C(=O)N(c4ccccc4)C(=O)C3N2Nc2ccc(C#N)cc2)CC1 (some centres not stated): 1.0
- COC(=O)[C@@]1(Cc2ccccc2CN=[N+]=[N-])N=C(c2ccc(OCCCO)cc2)O[C@H]1c1ccccc1: 1.0
- COC(=O)[C@@]1(Cc2ccccc2CN=[N+]=[N-])N=C(c2ccc(OCCCO)cc2)O[C@H]1c1ccccc1CN=[N+]=[N-]: 0.0
- CN1C(=O)C2C=CC(C(O)c3cc(C(F)(F)F)cc(C(F)(F)F)c3)N(Nc3ccccc3)C2C1=O (configuration not stated): 0.0
- CN1C=C(C(=O)OCCS(C)(=O)=O)C(C(=O)OCCS(C)(=O)=O)=CC(c2ccc(CO)cc2)=CC1c1cccs1 (configuration not stated): 1.0

Sourced from PubChem BioAssay
